test system: K-562 leukemia; test: NCI tumour cell line growth inhibition, 48 h
Where a SMILES comes first, the peptide text is derived from it. [ ]: non-standard residue; d: D form. Ava = NCCCCC(=O)O; Mpa = O=C(O)CCS
Item-by-item account of TGI
Assay Readout: TGI

>>> reported_value("CCCC(=O)OCC1OC(n2cc(F)c(=O)[nH]c2=O)CC1OC(=O)CCC (stereo not drawn)")
"> 10 µM"
>>> reported_value("CC(=O)OC1(Sc2ccccc2)CC2[C@H]3COC(C)(C)O[C@H]3CC[C@@]2(C)CC1=O (stereo partly drawn)")
"> 100 µM"
>>> reported_value("Cc1nc(-n2nc(-c3ccccc3)cc2-c2ccccc2)sc1C(=O)CC(=O)C(=O)Nc1ccc(Cl)c(Cl)c1")
"> 100 µM"
>>> reported_value("O=C(c1ccccc1)c1nc2c(Cl)ccc(Cl)c2cc1C(Br)Br")
"1.77 µM"
>>> reported_value("O=C(COc1cc(=O)oc2ccccc12)c1ccccc1")
"> 100 µM"
>>> reported_value("Cc1cn(S(=O)(=O)c2ccccc2)c2c(OCc3ccccc3)cc([N+](=O)[O-])cc12")
"> 100 µM"
>>> reported_value("O=[N+]([O-])c1ccc2c(c1)nc1n2C(c2c(F)cccc2F)SC1 (stereo not drawn)")
"> 100 µM"
>>> reported_value("COc1ccc(CCN2CCCn3c2nc2ccccc2c3=O)cc1")
"> 100 µM"
>>> reported_value("COc1cc2c(cc1OC)C(CCN)=NCC2")
"43.3 µM"
>>> reported_value("CC(NC(=O)CCS)C(=O)NC(C)C(=O)NC(Cc1c[nH]c2ccccc12)C(=O)NC(Cc1c[nH]cn1)C(=O)NC(CO)C(=O)NC(Cc1c[nH]c2ccccc12)C(=O)NCCCCC(=O)NC(C)C(=O)NC(CCC(N)=O)C(=O)NC(CCCCN)C(=O)NC(C)C(=O)NC(CCCNC(=N)N)C(=O)NC(CCCCN)C(N)=O (stereo not drawn) ([Mpa]AAWHSW[Ava]AQKARK-NH2; configuration not given here)")
"99.4 µM"
>>> reported_value("Nc1[nH]nc(Nc2ccccc2)c1-c1nc2ccccc2s1")
"7.81 µM"
>>> reported_value("Cc1c(C)c2cc3c(=O)c(CCl)coc3c(C)c2oc1=O")
"> 100 µM"
>>> reported_value("COc1ccc(-c2c(C#N)c(N)[nH]c(=S)c2C#N)cc1")
"> 100 µM"
>>> reported_value("NCCCn1c(Cl)nc2ccccc21")
"> 100 µM"
>>> reported_value("C[C@H]1C[C@@H](n2c(Nc3ccc(OC(F)(F)F)cc3)nc3cc(CCC(=O)O)ccc32)CC(C)(C)C1")
"37.7 µM"
>>> reported_value("Cc1cc2ncn(CC(=O)O)c2cc1C")
"> 100 µM"
>>> reported_value("O=[N+]([O-])c1ccc(Sc2cccc[n+]2[O-])c2nonc12")
"> 100 µM"
>>> reported_value("Cc1cccc2c(=O)c3cccc([C@H](C)C(=O)O)c3oc12")
"> 100 µM"
